# Tested on: MRSA
# ASSAY_PROTOCOL: Dispersion of preformed MRSA biofilm
# Type: cell-based, Staphylococcus aureus
# ASSAY_CONTEXT: concentration that disperses 50% of a pre-formed biofilm, hydrochloride
Structures can show the parent of a compound that is named as a salt.
MEASUREMENT_TYPE: pEC50
# pEC50 = -log10(concentration in molar units)

*Q* Supply pEC50 value. Item: Nc1nc2ccc(NC(=O)c3c(Cl)c(Cl)c(Cl)c(Cl)c3C(=O)O)cc2[nH]1 [Compound 3, hydrochloride]
*A* 5.54

###

The entries below are paired with their reported pIC50.
# Tested on: S. epidermidis
# ASSAY_PROTOCOL: Inhibition of S. epidermidis biofilm formation (crystal violet)
# Format: cell-based, Staphylococcus epidermidis
# ASSAY_CONTEXT: Staphylococcus epidermidis, concentration that inhibits 50% biofilm development
# Experimental: A dose-response study was then initiated in which both the IC50 and EC50 value of each compound towards the bacterial strains were determined (Table 1). Here, IC50 is defined as the concentration of compound that inhibits 50% biofilm development while EC50 is defined as the concentration of compound that disperses 50% of a pre-formed biofilm. Procedure to Determine the Inhibitory Effect of Test Compounds on E. faecium, MRSA, S. epidermidis, PAO1 and MDRAB Biofilm Formation: […]
Structures can show the parent of a compound that is named as a salt.
Reminder that pIC50 is minus the log10 of a molar concentration.

COMPOUND	pIC50
Nc1nc2ccc(NC(=O)[C@@H]3C4C=CC(C4)[C@@H]3C(=O)O)cc2[nH]1 (some centres unmarked) [Compound 5, hydrochloride]	5.39

Turning to the following compound.
*Q* Give the measured pIC50 for Nc1nc2ccc(NC(=O)c3cccc4cccc(C(=O)O)c34)cc2[nH]1 [Compound 9, hydrochloride]
*A* 5.21
